Tested target: human delta-like ligand 3 (DLL3) on SHP77 cells (human) (UniProt Q9NYJ7)
Sequence (Q9NYJ7 27-618, stated change not applied): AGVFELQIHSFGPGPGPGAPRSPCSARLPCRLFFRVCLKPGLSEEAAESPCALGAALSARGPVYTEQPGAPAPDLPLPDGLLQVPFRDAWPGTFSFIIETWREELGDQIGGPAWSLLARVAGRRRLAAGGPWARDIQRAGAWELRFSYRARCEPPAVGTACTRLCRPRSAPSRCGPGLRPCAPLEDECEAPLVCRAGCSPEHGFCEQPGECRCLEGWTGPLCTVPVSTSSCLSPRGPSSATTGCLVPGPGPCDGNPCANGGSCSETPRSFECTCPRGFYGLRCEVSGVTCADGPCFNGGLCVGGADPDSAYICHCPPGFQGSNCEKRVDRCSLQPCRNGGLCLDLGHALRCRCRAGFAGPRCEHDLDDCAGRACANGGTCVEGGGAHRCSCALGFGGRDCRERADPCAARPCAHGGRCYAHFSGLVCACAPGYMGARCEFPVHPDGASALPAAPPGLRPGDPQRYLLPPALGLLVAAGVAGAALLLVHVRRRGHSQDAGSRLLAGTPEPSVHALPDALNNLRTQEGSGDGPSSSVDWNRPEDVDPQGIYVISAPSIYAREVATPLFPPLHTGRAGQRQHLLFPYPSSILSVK
Procedure summary: FACS on SHP77 cells
Listing of recorded MFI at 100 nM by entry.

[
  {
    "Binder": "Hab009VL2aVH1-hFc (scFv, part only; not given: VL-VH linker and human IgG1 Fc, V domains shown, not shown: another chain or arm of the molecule; a dimerising Fc or GST; small tags and cut ends) VL: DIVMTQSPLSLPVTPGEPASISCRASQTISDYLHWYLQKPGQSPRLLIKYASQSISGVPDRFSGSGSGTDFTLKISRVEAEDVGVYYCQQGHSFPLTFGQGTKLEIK VH: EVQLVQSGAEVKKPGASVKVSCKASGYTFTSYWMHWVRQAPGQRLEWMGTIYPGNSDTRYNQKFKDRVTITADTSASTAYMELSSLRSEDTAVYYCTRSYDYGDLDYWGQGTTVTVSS",
    "MFI at 100 nM [MFI]": 929
  },
  {
    "Binder": "Hab014VL1VH2-hFc (scFv, part only; not given: VL-VH linker and human IgG1 Fc, V domains shown, not shown: another chain or arm of the molecule; a dimerising Fc or GST; small tags and cut ends) VL: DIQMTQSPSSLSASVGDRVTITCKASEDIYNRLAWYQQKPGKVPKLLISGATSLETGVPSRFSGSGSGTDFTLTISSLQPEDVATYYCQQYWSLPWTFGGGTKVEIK VH: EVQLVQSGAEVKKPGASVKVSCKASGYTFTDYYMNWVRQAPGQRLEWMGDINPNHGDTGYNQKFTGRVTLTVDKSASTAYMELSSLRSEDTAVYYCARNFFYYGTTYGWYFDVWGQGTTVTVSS",
    "MFI at 100 nM [MFI]": 1120
  },
  {
    "Binder": "Hab015VL4VH1a-hFc (scFv, part only; not given: scFv linker and human IgG1 Fc, V domains shown, not shown: another chain or arm of the molecule; a dimerising Fc or GST; small tags and cut ends) VL: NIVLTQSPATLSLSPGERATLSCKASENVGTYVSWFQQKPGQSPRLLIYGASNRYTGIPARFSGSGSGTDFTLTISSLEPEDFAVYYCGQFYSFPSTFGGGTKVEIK VH: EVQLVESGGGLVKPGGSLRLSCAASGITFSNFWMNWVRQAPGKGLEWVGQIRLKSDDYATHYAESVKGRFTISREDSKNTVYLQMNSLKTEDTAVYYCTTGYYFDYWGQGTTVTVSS",
    "MFI at 100 nM [MFI]": 1240
  }
]
